Measured values drawn from patent US6534524B1 for this set.

Target: unphosphorylated VEGF-R2Δ50 (FLVK) (Homo sapiens, UniProt P35968, DEL940-989/E990V)
Sequence (P35968 with tags, fused parts or gaps DEL940-989/E990V limits assumed): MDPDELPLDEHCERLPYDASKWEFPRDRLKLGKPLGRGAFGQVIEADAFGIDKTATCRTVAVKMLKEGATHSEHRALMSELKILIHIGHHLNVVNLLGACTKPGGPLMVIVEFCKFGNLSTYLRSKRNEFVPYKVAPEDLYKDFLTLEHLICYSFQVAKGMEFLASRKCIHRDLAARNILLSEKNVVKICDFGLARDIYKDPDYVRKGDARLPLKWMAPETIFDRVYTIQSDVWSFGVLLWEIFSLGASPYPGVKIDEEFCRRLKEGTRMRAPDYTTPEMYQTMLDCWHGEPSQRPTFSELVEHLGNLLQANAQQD
Experiment: VEGF-R2 coupled spectrophotometric assay, unphosphorylated VEGF-R2Δ50 (FLVK)
Settings: FLVK Ki, Table 1
Items are presented alongside their recorded Ki.

COMPOUND | Ki / nM
CCn1nc(C)cc1C(=O)Nc1cccc(Oc2ccc3c(/C=C/c4c[nH]c(C)n4)n[nH]c3c2)c1 | 0.27
CN(c1ccccc1)c1ccc2c(/C=C/c3ccccc3)n[nH]c2c1 | 15
O=C(c1cccc(NC(=O)c2cc(Cl)ccn2)c1)c1ccc2c(/C=C/c3ccccc3)n[nH]c2c1 | 0.54
CONC(=O)c1ccccc1Sc1ccc2c(/C=C/c3ccccn3)n[nH]c2c1 [Example 35(r)] | 0.11
O=C(c1cccc(NC(=O)c2cccc3[nH]ccc23)c1)c1ccc2c(/C=C/c3ccccc3)n[nH]c2c1 | 0.18
COc1cc(-c2ccc3c(-c4cc5ccccc5[nH]4)n[nH]c3c2)ccc1O | 3.7
Cc1cc(C(=O)Nc2cccc(C(=O)c3ccc4c(/C=C/c5ccccn5)n[nH]c4c3)c2)n(C)n1 | 0.06
O=C(Nc1cccc(Oc2ccc3c(/C=C/c4ccco4)n[nH]c3c2)c1)c1ccccc1 | 0.83
Cc1cnc(C(=O)Nc2cccc(N(C)c3ccc4c(/C=C/c5ccccc5)n[nH]c4c3)c2)s1 | 0.39
Cn1ccnc1C(=O)Nc1cccc(Oc2ccc3c(/C=C/c4ccccn4)n[nH]c3c2)c1 [Example 31(e)] | 0.02
CN(c1cccc(NC(=O)c2cccc(C(F)(F)F)c2)c1)c1ccc2c(/C=C/c3ccc4c(c3)OCO4)n[nH]c2c1 | 0.43
Oc1ccc(-c2ccc3c(/C=C/c4ccccc4)n[nH]c3c2)cc1OCc1ccccc1 | 2.2
CCn1nc(C)cc1C(=O)Nc1cc(Nc2ccc3c(/C=C/c4ccccn4)n[nH]c3c2)c(F)cc1C | 0.37
CN(c1cccc(NC(=O)c2ccccc2)c1)c1ccc2c(/C=C/c3ccccc3)n[nH]c2c1 | 0.48
O=C(Nc1cccc(Oc2ccc3c(/C=C/c4ccc(Cl)cc4)n[nH]c3c2)c1)c1ccccc1 | 0.74
O=C(Nc1cccc(Oc2ccc3c(/C=C/c4ccccn4)n[nH]c3c2)c1)c1ccccc1 | 0.29
COc1cc(-c2ccc3c(-c4ccccc4)n[nH]c3c2)ccc1O | 300
O=C(c1cccc(NC(=O)C2CC2)c1)c1ccc2c(/C=C/c3ccccn3)n[nH]c2c1 | 2.95
C=C(c1cccc(NC(=O)c2ccccc2)c1)c1ccc2c(/C=C/c3ccccc3)n[nH]c2c1 | 0.63

====

Items are presented alongside their recorded log10(concentration at 7 h).
Assay: Determination of inhibitor concentration in mouse plasma after intraperitoneal and oral dosing
Format: in vivo
Details: female, IP, 25 mg/kg, vehicle PEG400:H2O pH 2.3 30:70, read-out: Cmin (7 hr conc.)
READOUT_LABEL: log10(concentration at 7 h) (log10 of the value in ng/mL)

COMPOUND | READOUT_LABEL | REPORTED_MEASUREMENT
Cn1cccc1C(=O)NNC(=O)c1ccccc1Sc1ccc2c(/C=C/c3ccccn3)n[nH]c2c1 [Example 35(e)] | log10(concentration at 7 h) | 1.81
O=C(c1cccc(NC(=O)C2C[C@H]2c2ccccc2)c1)c1ccc2c(/C=C/c3ccccn3)n[nH]c2c1 (stereo partly drawn) | log10(concentration at 7 h) | 2.01
Cc1cc(C(=O)Nc2cccc(C(=O)c3ccc4c(/C=C/c5ccccn5)n[nH]c4c3)c2)n(C)n1 | log10(concentration at 7 h) | 2.58
CCn1nc(C)cc1C(=O)Nc1cc(C(=O)c2ccc3c(/C=C/c4ccccn4)n[nH]c3c2)ccc1C [Example 41(ee)] | log10(concentration at 7 h) | 3.22
O=C(Nc1cccc(Oc2ccc3c(/C=C/c4ccccn4)n[nH]c3c2)c1)c1ccccc1 | log10(concentration at 7 h) | 3.28
O=C(NC1CCC1)c1ccccc1Sc1ccc2c(/C=C/c3ccccn3)n[nH]c2c1 | log10(concentration at 7 h) | 2.67
C=C(C)CNC(=O)c1ccccc1Sc1ccc2c(/C=C/c3ccccn3)n[nH]c2c1 [Example 35(ee)] | log10(concentration at 7 h) | 0.30
CCCNC(=O)c1ccccc1Sc1ccc2c(/C=C/c3ccccn3)n[nH]c2c1 | log10(concentration at 7 h) | 1.38
O=C(Nc1cccc(Oc2ccc3c(/C=C/c4c[nH]cn4)n[nH]c3c2)c1)c1ccccc1 | log10(concentration at 7 h) | 3.10
CCOCCNC(=O)c1ccccc1Sc1ccc2c(/C=C/c3ccccn3)n[nH]c2c1 [Example 35(z)] | log10(concentration at 7 h) | 1.34
C#CCNC(=O)c1ccccc1Sc1ccc2c(/C=C/c3ccccn3)n[nH]c2c1 | log10(concentration at 7 h) | 0.78
O=C(NCC(F)(F)F)c1ccccc1Sc1ccc2c(/C=C/c3ccccn3)n[nH]c2c1 | log10(concentration at 7 h) | 0.78
CCn1nc(C)cc1C(=O)Nc1cccc(C(=O)c2ccc3c(/C=C/c4ccccn4)n[nH]c3c2)c1 | log10(concentration at 7 h) | 3.59
C[C@@H]1C[C@H]1C(=O)Nc1cccc(C(=O)c2ccc3c(/C=C/c4ccccn4)n[nH]c3c2)c1 (racemic) | log10(concentration at 7 h) | 2.48
Cc1cc(C(=O)Nc2cccc(Oc3ccc4c(/C=C/c5ccccn5)n[nH]c4c3)c2)nn1C | log10(concentration at 7 h) | 2.25
O=C(NNC(=O)c1ccccc1Sc1ccc2c(/C=C/c3ccccn3)n[nH]c2c1)c1cccs1 | log10(concentration at 7 h) | 1.23
O=C(Nc1nccs1)c1ccccc1Sc1ccc2c(/C=C/c3ccccn3)n[nH]c2c1 | log10(concentration at 7 h) | 0.30
O=C(NCC1CC1)c1ccccc1Sc1ccc2c(/C=C/c3ccccn3)n[nH]c2c1 | log10(concentration at 7 h) | 1.20
CC(C)ONC(=O)c1ccccc1Sc1ccc2c(/C=C/c3ccccn3)n[nH]c2c1 | log10(concentration at 7 h) | 1.54
C=CCONC(=O)c1ccccc1Sc1ccc2c(/C=C/c3ccccn3)n[nH]c2c1 | log10(concentration at 7 h) | 1.72
Cc1ccc(CNC(=O)c2ccccc2Sc2ccc3c(/C=C/c4ccccn4)n[nH]c3c2)o1 | log10(concentration at 7 h) | 0.00
O=C(NCc1cccc(F)c1)c1ccccc1Sc1ccc2c(/C=C/c3ccccn3)n[nH]c2c1 | log10(concentration at 7 h) | 1.86
CC(C)NC(=O)c1ccccc1Sc1ccc2c(/C=C/c3ccccn3)n[nH]c2c1 | log10(concentration at 7 h) | 1.08
CCn1nc(C)cc1C(=O)Nc1cccc(Oc2ccc3c(/C=C/c4ccccn4)n[nH]c3c2)c1 | log10(concentration at 7 h) | 4.18
O=C(Nc1ccccc1)c1ccccc1Sc1ccc2c(/C=C/c3ccccn3)n[nH]c2c1 | log10(concentration at 7 h) | 0.85
O=C(NC1CC1)c1ccccc1Sc1ccc2c(/C=C/c3ccccn3)n[nH]c2c1 [Example 33(e)] | log10(concentration at 7 h) | 1.97
CCNC(=O)c1ccccc1Sc1ccc2c(/C=C/c3ccccn3)n[nH]c2c1 | log10(concentration at 7 h) | 1.68
Cn1nc(C(C)(C)C)cc1C(=O)Nc1cccc(C(=O)c2ccc3c(/C=C/c4ccccn4)n[nH]c3c2)c1 | log10(concentration at 7 h) | 2.67

====

Assay: Determination of inhibitor concentration in mouse plasma after intraperitoneal and oral dosing
Type: in vivo
Settings: female, IP, 25 mg/kg, vehicle PEG400:H2O pH 2.3 30:70

COMPOUND | AUC(0-t)
CCCn1nc(C)cc1C(=O)Nc1cccc(C(=O)c2ccc3c(/C=C/c4ccccn4)n[nH]c3c2)c1 [Example 41(r)] | > 23800 ng·h/mL
CCn1nc(C)cc1C(=O)Nc1cc(C(=O)c2ccc3c(/C=C/c4ccccn4)n[nH]c3c2)ccc1C [Example 41(ee)] | > 28400 ng·h/mL
Cc1cc(C(=O)Nc2cccc(Oc3ccc4c(/C=C/c5ccccn5)n[nH]c4c3)c2)nn1C | > 7040 ng·h/mL
O=C(Nc1cccc(Oc2ccc3c(/C=C/c4c[nH]cn4)n[nH]c3c2)c1)c1ccccc1 | > 20600 ng·h/mL

====

Test system: human umbilical vein endothelial cells (HUVEC)
Assay: HUVEC proliferation assay (VEGF-stimulated, MTT);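 also: relative to VEGF-stimulated control minus starvation-medium baseline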
Assay type: cell-based
Details: Library II, Y=S; 0.5 mM (column head; text: nominal 0.5 nM); crude reaction mixtures
READOUT_LABEL: % inhibition of the proliferation of HUVEC (%)

COMPOUND | REPORTED_MEASUREMENT
CC(C)CCC(C)NC(=O)c1ccccc1Sc1ccc2c(/C=C/c3ccccn3)n[nH]c2c1 (stereo not drawn) | 6
Nc1ccc(CCNC(=O)c2ccccc2Sc2ccc3c(/C=C/c4ccccn4)n[nH]c3c2)cc1 | 32
CC(C)C(NC(=O)c1ccccc1Sc1ccc2c(/C=C/c3ccccn3)n[nH]c2c1)C(C)C | 18
O=C(NCCCN1CCOCC1)c1ccccc1Sc1ccc2c(/C=C/c3ccccn3)n[nH]c2c1 | 5
O=C(Nc1nncs1)c1ccccc1Sc1ccc2c(/C=C/c3ccccn3)n[nH]c2c1 | 44
CCN1CC(NC(=O)c2ccccc2Sc2ccc3c(/C=C/c4ccccn4)n[nH]c3c2)CN1CC | 2
COc1ccc(NC(=O)c2ccc3c(-c4nc5ccccc5[nH]4)n[nH]c3c2)cc1O [drawing 607] | 19
O=C(O)CCNC(=O)c1ccccc1Sc1ccc2c(/C=C/c3ccccn3)n[nH]c2c1 | 4
O=C(NCC1CC1)c1ccccc1Sc1ccc2c(/C=C/c3ccccn3)n[nH]c2c1 [drawing 758] | 35
